readout type: melting point

CC1(C)NC(=O)c2ccc(OCCBr)cc2O1 = 156 to 158 °C
Fc1ccc(CSc2nc3cnccc3[nH]2)cc1F = 147 to 149 °C
C=CCCCCCCCCCOc1ccc(-c2ccc(O)cc2)cc1 = 135 to 136 °C
COc1cccc(Sc2ccnc(Nc3cc(OC)c(OC)c(OCCN4CCCC4)c3)n2)c1 = 120 to 121 °C

Given the compound Cc1ccc2oc(=O)n(-c3ccnc(N)c3)c2c1 , what is its reported melting point? 173 to 174 °C

Next entry: CCOC(=O)c1nc(Cl)n2c1c(Cl)nc1ccccc12 132 to 135 °C

Next entry: CCOC(=O)C=Cc1cc([N+](=O)[O-])cc2c1CCCC2 95 to 96 °C

Next entry: COc1cccc(C2OCC(C)(C)C2(O)C(C)(C)C)c1 (stereo unspecified) 83 to 83.5 °C

Next entry: CC(C)c1oc(-c2ccccc2)c(-c2ccc(F)cc2)c1C=CC=O 98 to 100 °C

Next entry: COCc1c(CO)ncc2[nH]c3cccc(Cc4ccc(Cl)cc4)c3c12 220 to 222 °C

Next entry: Cc1nnc(N2N=C(c3ccc(Cl)cc3)c3cc4c(cc3C[C@H]2C)OCO4)s1 105 to 108 °C

* * *

readout type: melting point

O=C(CC[C@@H](C(=O)OCc1ccccc1)n1c2ccccc2c2ccccc21)OCCOC(=O)c1ccc(NC(=O)OCc2ccccc2)cc1 = 45 °C
COC(=O)CCc1cc2nc(Cl)ccc2n1S(=O)(=O)c1cccc(OC(F)(F)F)c1 = 102 °C

Given the compound Cc1nc(N)nc(N)c1CCCc1ccccc1C(F)(F)F , what is its reported melting point? 151 to 158 °C

Next entry: COc1ccc(C2(C#Cc3ccc(C(=O)O)cc3)CCC(=O)CC2)cc1OC1CCCC1 170 to 171 °C

Next entry: CCOC(=O)CCC(=O)c1cccc(C(=O)c2ccc(Cl)cc2)c1N 112 to 115 °C

Next entry: CC(C)(C)c1nc(CO)c[nH]1 212 to 221 °C

Next entry: COc1ccc2c(c1)C(=O)c1ccc(C(=O)O)cc1S2(=O)=O 324 to 327 °C

Next entry: COc1cc([N+](=O)[O-])c2nccc(C)c2c1OCCCCCCCCCc1ccccc1 56 to 56.5 °C

Next entry: CC1=C(/C=C/C(C)=C/C=C/C(C)=C/C(=O)OCOC(=O)Oc2ccc([N+](=O)[O-])cc2)C(C)(C)CCC1 35 to 36 °C

Next entry: CC(Oc1ncn(-c2cccc(F)c2)n1)C(N)=O (stereo not given) 156 to 158 °C

* * *

readout type: melting point

COC1(c2cccc3[nH]ccc23)CCCNC1 (stereo unspecified) = 212 °C

Given the compound CC(=NNC(=O)c1ccccc1C)c1ccncc1 , what is its reported melting point? 187 °C

Next entry: CCOCCn1c(N2CCCN(CCC3(c4ccc(Cl)cc4)CCN(C(=O)c4cc(OC)c(OC)c(OC)c4)C3)CC2)nc2ccccc21 (stereo unspecified) 74 to 81 °C

* * *

Catalogue of melting point values

Solved cases below.
O=C(Nc1nc(-c2cc(Cl)nc(Cl)c2)cs1)NS(=O)(=O)c1ccccc1C(F)(F)F = > 280 °C
Cc1c(NC(=O)c2ccc(OC[C@@H]3CCCO3)cc2)ccc2cc(CNCC3CCOCC3)[nH]c12 = 161 to 162 °C
O=c1n(CC(F)(F)F)c2ccccc2n1C1CCN(CCCCN2Cc3cc(Cl)ccc3S2(=O)=O)CC1 = 237 to 239 °C
CC(=NOCCOc1ccc(CC2SC(=O)NC2=O)cc1)c1ccc(NS(=O)(=O)c2ccccc2)cc1 (stereo not drawn) = 213 to 215 °C
CCCCc1nc2c(N)nc3ccccc3c2n1CCCNS(=O)(=O)c1ccccc1 = 210 to 212 °C
COC(=O)c1cc(Oc2c(Cl)cc(C(F)(F)F)cc2Cl)n[nH]1 = 114 to 116 °C
FC(F)(F)C1(c2cc(Cl)cc(Cl)c2)CC(c2ccc(-c3cn[nH]c3)c3ccccc23)=NO1 (stereo not drawn) = 117 to 120 °C

Then there is this compound:
Given the compound CCCOc1ccc2c(c1)C(c1ccc(OC)cc1OCC(=O)O)C(C(=O)O)C2c1cc2c(cc1OC)OCO2 (stereo not drawn) , what is its reported melting point? 188 to 190 °C

* * *

readout type: melting point

Solved cases below.
O=C(Nc1c(C(O)(C(F)(F)F)C(F)(F)F)ccc2ccccc12)c1cccc(C(F)(F)F)c1 = 187 to 188 °C
Cc1ccc(CC(C)(C)C(=O)C=CN(C)C)cc1 = 74 to 76 °C
O=C(Nc1ccc(I)cc1Cl)C(F)(F)F = 51 to 52 °C
COC(=O)c1ccccc1C(=O)c1ccc(N2CCC(N3C(=O)OCc4ccc(Cl)cc43)CC2)c([N+](=O)[O-])c1 = 90 to 92 °C
O=C1[C@H]2CCC[C@H]2Nc2ccccc2N1Cc1ccc2ccccc2c1 (relative stereo) = 148 °C

Given the compound Cc1ncc2n1-c1ccc(Br)cc1C(c1ccccn1)=NC2 , what is its reported melting point? 189 to 190 °C

Next entry: CCOC1=N[C@@H](C(C)C)C(=O)N[C@]1(C)Cc1ccccc1 125 °C

Next entry: c1ccc(-c2cnc3c(c2)ncn3-c2cccc(-c3cccnc3)c2)cc1 179 to 180 °C

Next entry: O=[N+]([O-])c1ccc2c(c1)nc(/C=C/c1ccccc1)n2-c1ccccn1 200 to 202 °C

* * *

Catalogue of melting point values

Solved cases below.
Brc1ccc(C=Cc2cccc3ccccc23)cc1 = 106 °C
CC(=O)NC1CCN(Cc2ccccc2)C1 (stereo not given) = 83 to 85 °C
COC(=O)c1ccc(C(=O)Nc2nnc(-c3cc(Cl)cc(Cl)c3O)s2)nc1 = 301 °C
Cc1cn(C2CCN(c3c(F)cc4c(=O)c(C(=O)O)cn(C5CC5)c4c3F)C2)nn1 (stereo not given) = 219 to 220 °C
C=C1C(=O)c2ccccc2OC1c1cccc([N+](=O)[O-])c1 (stereo not given) = 131 to 132 °C

Given the molecule CCN(c1cccc(OC)c1)c1nc(=O)c2cccnc2s1 , what is its reported melting point? 136 °C

Next entry: CCC(=O)O[C@@H]1[C@@H](c2ccccc2)Nc2c(ccn3c(C)c(C)nc23)[C@H]1OCCOC 106 to 107 °C

Next entry: CC(Sc1ccccc1)n1cc(C2=C(c3cn(C(C)Sc4ccccc4)c4ccccc34)C(=O)NC2=O)c2ccccc21 (stereo not given) 102 to 105 °C

Next entry: CC(C)Cc1nc2cc(C(c3cccc(Cl)c3)n3ccnc3)ccc2[nH]c1=O (stereo not given) 210 °C

Next entry: COCn1nc(Nc2cnccn2)c2cc(-c3ncccc3Cl)cc(OCCc3ccccn3)c21 120 to 122 °C

Next entry: OCCCCNc1nnc(-c2ccc(F)c(F)c2Nc2ccc(I)cc2F)o1 82 to 83 °C

* * *

readout type: melting point

Solved cases below.
C=C(C)COc1c(C)c(CCC=O)c2c(c1C)CC(C)(C)O2 = 55.5 to 56 °C
O=C(CC1CCCCC1)Nc1c(Cl)ccc2nc(NC[C@@H](O)CO)ccc12 = 155 to 159 °C
COC(CN(C)C(=O)Nc1nnc(C(C)Oc2ccc(Cl)cc2)s1)OC (stereo not given) = 116 to 118 °C
c1ccc(CN2C(=NCCCn3ccnc3)c3cccc4cccc2c34)cc1 = 90 to 93 °C

Then there is this molecule:
Given the molecule CC(=O)OCC(=O)c1ccc(C)cc1C , what is its reported melting point? 43 to 45 °C

* * *

Catalogue of melting point values

CS(=O)c1nccc(-c2cn(Cc3ccccc3C#N)c(=O)n2-c2ccc(F)cc2)n1 (stereo not given) = 133 to 136 °C
CCc1nn(Cc2ccccn2)c(C(N)=O)c1NC(=O)c1cc(S(C)(=O)=O)ccc1OCC(C)C = 225 to 227 °C
CC[C@@]12C[C@H](N)[C@](O)(c3ccccc3)C[C@H]1CCc1cc(O)ccc12 = 209 to 210 °C
Cc1cccnc1NC(=O)CN1C[C@@H](C)N(c2ncnc3sccc23)[C@@H](C)C1 = 157 to 159 °C

Then there is this molecule:
Given the molecule CCOC(=O)/C=C(C)/C=C/C=C(\C)C1=Cc2cc(C)cc(C)c2OC1 , what is its reported melting point? 122 °C

* * *

Catalogue of melting point values

Solved cases below.
Cn1cnc2c(NC3CCCC3)ncnc21 = 108 to 109 °C
COC(=O)c1cccc2c(I)c(OC)ccc12 = 98 to 99 °C
C=Cc1ccc(-c2ncccc2S(=O)(=O)Nc2ncc(C)nc2OC)cc1 = 110 to 112 °C

Given the compound CC1=C(C(=O)OCC2CC2)C(c2ccccc2C(F)(F)F)c2c(ccnc2OC(C)C)N1 (configuration not stated) , what is its reported melting point? 112 to 114 °C

Next entry: COc1ccc(-c2ccc3c(c2)C2(CO3)C(=O)N(Cc3ccc(Cl)s3)c3ccccc32)cn1 (configuration not stated) 60 to 62 °C

Next entry: C=CCOc1nc(SC)nc(NC(C)C)c1[N+](=O)[O-] 51 to 54 °C
